- protocolNotes: Log D
- Assay type: physicochemical
Peptide text beside a SMILES is read from it. * marks the point of attachment. X1 = C=CC(=O)NCCCCC(NC(=O)OCc1ccccc1)C(=O)N1CCN(C(=O)C(CCC(=O)*)NC(=O)c2cccc3ccccc23)CC1
measuredEndpoint: logD

1) C=CC(=O)NCCCCC(NC(=O)OCc1ccccc1)C(=O)N1CCN(C(=O)C(CCC(=O)NCCCCCC(=O)NC(CC(=O)O)C(=O)NC(CC(=O)O)C(=O)NC(CC(=O)O)C(=O)O)NC(=O)c2cccc3ccccc23)CC1 (centres unmarked) [Compound 17] = < -2.73
2) C=CC(=O)NCCCCC(NC(=O)OCc1ccccc1)C(=O)N1CCN(C(=O)C(CCC(=O)NCC(=O)NCC(=O)NCC(=O)NC(CC(=O)O)C(=O)NC(CC(=O)O)C(=O)NC(CC(=O)O)C(=O)O)NC(=O)c2cccc3ccccc23)CC1 (centres unmarked) [Compound 18] (X1-GGGDDD-OH; configuration not given here) = < -2.63

---

- protocolNotes: MDCK cell permeability assay
- Type: in vitro ADME
- appliedConditions: dog, without Pgp inhibitor
Peptide text beside a SMILES is read from it. * marks the point of attachment. X1 = C=CC(=O)NCCCCC(NC(=O)OCc1ccccc1)C(=O)N1CCN(C(=O)C(CCC(=O)*)NC(=O)c2cccc3ccccc23)CC1
Some compounds, each annotated with its measured Papp B→A.
measuredEndpoint: Papp B→A (×10⁻⁶ cm/s)

1. C=CC(=O)NCCCCC(NC(=O)OCc1ccccc1)C(=O)N1CCN(C(=O)C(CCC(=O)NCCCCCC(=O)NC(CC(=O)O)C(=O)NC(CC(=O)O)C(=O)NC(CC(=O)O)C(=O)O)NC(=O)c2cccc3ccccc23)CC1 (centres unmarked) = 0.42
2. C=CC(=O)NCCCCC(NC(=O)OCc1ccccc1)C(=O)N1CCN(C(=O)C(CCC(=O)NCC(=O)NCC(=O)NCC(=O)NC(CC(=O)O)C(=O)NC(CC(=O)O)C(=O)NC(CC(=O)O)C(=O)O)NC(=O)c2cccc3ccccc23)CC1 (centres unmarked) [Compound 18] (X1-GGGDDD-OH; configuration not given here) = 0.56

---

Some compounds, each annotated with its measured kinact.
- experimentalTarget: Recombinant human TG2 (Homo sapiens, UniProt P21980)
- Construct: GST (with PSP protease site, plasmid pGST-PSP-rhTG2) (N, cleaved yes); made in house; host or cells: E. coli (BL21)
- Sequence (P21980 whole entry): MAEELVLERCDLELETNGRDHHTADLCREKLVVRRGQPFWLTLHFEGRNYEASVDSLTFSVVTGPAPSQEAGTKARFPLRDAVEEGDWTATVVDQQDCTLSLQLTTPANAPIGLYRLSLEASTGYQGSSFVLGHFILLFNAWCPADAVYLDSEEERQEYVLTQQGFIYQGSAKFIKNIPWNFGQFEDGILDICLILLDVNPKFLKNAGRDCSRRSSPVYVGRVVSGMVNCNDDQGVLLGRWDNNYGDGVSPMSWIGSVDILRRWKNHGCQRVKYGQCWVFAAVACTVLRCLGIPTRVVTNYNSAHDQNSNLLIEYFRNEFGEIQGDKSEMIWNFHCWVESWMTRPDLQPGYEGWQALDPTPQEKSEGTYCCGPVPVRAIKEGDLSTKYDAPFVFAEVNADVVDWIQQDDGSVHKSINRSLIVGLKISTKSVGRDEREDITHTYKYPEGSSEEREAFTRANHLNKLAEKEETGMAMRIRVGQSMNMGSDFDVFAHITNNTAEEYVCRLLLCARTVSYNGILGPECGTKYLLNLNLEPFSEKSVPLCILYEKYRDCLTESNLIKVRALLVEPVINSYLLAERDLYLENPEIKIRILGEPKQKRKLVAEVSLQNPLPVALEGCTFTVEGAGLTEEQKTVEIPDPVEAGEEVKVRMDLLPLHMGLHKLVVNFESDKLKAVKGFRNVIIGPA
- protocolNotes: rhTG2 inhibition assay, continuous chromogenic substrate AL5, Kitz and Wilson conditions
- Type: biochemical
- appliedConditions: * compounds fitted to double reciprocal model; 25 °C, pH 6.9, 100 µM AL5
Peptide text beside a SMILES is read from it. * marks the point of attachment. X1 = C=CC(=O)NCCCCC(NC(=O)OCc1ccccc1)C(=O)N1CCN(C(=O)C(CCC(=O)*)NC(=O)c2cccc3ccccc23)CC1
measuredEndpoint: kinact (s⁻¹)

1) C=CC(=O)NCCCCC(NC(=O)OCc1ccccc1)C(=O)N1CCN(C(=O)C(CCC(=O)NCC(=O)NCC(=O)NCC(=O)NC(CC(=O)O)C(=O)NC(CC(=O)O)C(=O)NC(CC(=O)O)C(=O)O)NC(=O)c2cccc3ccccc23)CC1 (stereo not shown) [Compound 18] (X1-GGGDDD-OH; configuration not given here) = 0.0388
2) C=CC(=O)NCCCCC(NC(=O)OCc1ccccc1)C(=O)N1CCN(C(=O)C(CCC(=O)NCCCCCC(=O)NC(CC(=O)O)C(=O)NC(CC(=O)O)C(=O)NC(CC(=O)O)C(=O)O)NC(=O)c2cccc3ccccc23)CC1 (stereo not shown) = 0.0065
3) C=CC(=O)NCCCC[C@H](NC(=O)OCc1ccccc1)C(=O)N1CCN(C(=O)[C@H](CCC(=O)NCCCCCNC(=O)c2cc3ccc(N(CC)CC)cc3oc2=O)NC(=O)c2cccc3ccccc23)CC1 = 0.004
4) C#CCNC(=O)CC[C@H](NC(=O)c1cccc2ccccc12)C(=O)N1CCN(C(=O)[C@H](CCCCNC(=O)C=C)NC(=O)OCc2ccccc2)CC1 = 0.00767

---

- protocolNotes: Solubility in aqueous solutions
- Assay type: physicochemical
- appliedConditions: read-out: concentration above which decreased solubility in aqueous solutions was displayed
measuredEndpoint: solubility

1. C=CC(=O)NCCCC[C@H](NC(=O)OCc1ccccc1)C(=O)N1CCN(C(=O)[C@H](CCC(=O)NCCCCCNC(=O)c2cc3ccc(N(CC)CC)cc3oc2=O)NC(=O)c2cccc3ccccc23)CC1 [Compound 22] = > 25 µM

All values here come from paper PMC10454375.
